Please provide measured GI50 for the entries that follow.
System: UACC-62
Test: NCI tumour cell line growth inhibition, 48 h
Active and inactive are the calls of the source. Rule as the data show it: active = GI50 up to about 1.1 µM and inactive = higher.

According to the records, this compound C=C1C2CCCC1C1(S(C)(=O)=O)CCCCC21O (configuration not stated) displays GI50 of > 100 µM (inactive)

According to the records, this compound O[C@H]1[C@H]2[C@H](O)C[C@H](CCOCc3ccccc3)CN2C[C@H]1O displays GI50 of > 100 µM (inactive)

According to the records, this compound O=C(NCCc1n[nH]c2c1C(=O)C=C(Nc1ccccc1)C2=O)OCc1ccccc1 displays GI50 of 8.09 µM (inactive)

According to the records, this compound CC(=O)OCCOCNC(=S)N/N=C(\C)c1cnccn1 displays GI50 of 13.5 µM (inactive)

According to the records, this compound CC(C)(Br)C(Br)CC/C(=C/CBr)CBr.CC(C)(Br)C(Br)CC/C(=C\CBr)CBr (configuration not stated) displays GI50 of 2.05 µM (inactive)

According to the records, this compound CC(C)CCC[C@@H](C)C1CCC2[C@@H]3CC=C4C[C@@H](OC(=O)CCC(=O)NCC[N+](C)(C)CCCS(=O)(=O)[O-])CC[C@]4(C)C3CC[C@@]21C (some centres not stated) displays GI50 of 26.3 µM (inactive)

According to the records, this compound COc1c(C)c(O)c2c(c1C)OC(c1ccccc1)CC2=O (configuration not stated) displays GI50 of 53 µM (inactive)

According to the records, this compound COc1cccc(/C(Cl)=C(\C=O)c2cccc(OC)c2)c1 displays GI50 of 4.43 µM (inactive)

According to the records, this compound CCCCCC[C@H]([C@H](C)O)n1cnc2c(N)ncnc21 displays GI50 of > 100 µM (inactive)

According to the records, this compound N#CCN(Cc1ccccc1)[C@H]1CCC[C@]1(O)/C=C/c1ccc2c(c1)OCO2 displays GI50 of 16.1 µM (inactive)

According to the records, this compound O=[N+]([O-])c1ccc2nc(Cl)n[n+]([O-])c2c1 displays GI50 of 14 µM (inactive)

According to the records, this compound CCOC(=O)C1=C(NC(C)(C)C)OCC1=O displays GI50 of > 100 µM (inactive)

According to the records, this compound COc1c(O)c2ccccc2c2cc(O)ccc12 displays GI50 of 2.67 µM (inactive)

According to the records, this compound COc1ccc(Br)c(N/N=C2\CCCNC2=O)c1 displays GI50 of > 100 µM (inactive)

According to the records, this compound CC(=O)NNC1=NN(C(C)=O)C2(S1)C(=O)Nc1ccc(Br)cc12 (configuration not stated) displays GI50 of 79.1 µM (inactive)

According to the records, this compound CN1CCC23c4c5ccc(O)c4OC2c2[nH]c4ccccc4c2CC3(O)C1C5 (configuration not stated) displays GI50 of 23.4 µM (inactive)

According to the records, this compound O=C1/C(=C/C=C/c2ccccc2)CCC1CNc1ccc(Br)cc1 (configuration not stated) displays GI50 of 6.92 µM (inactive)

According to the records, this compound C=CC[C@@H]1C=C[C@@H](C(=O)OC)n2c(=O)n(-c3ccccc3)c(=O)n21 displays GI50 of > 100 µM (inactive)

According to the records, this compound O=C(CCN1CCCC1)Nc1ccc2sc3ccccc3c(=O)c2n1 displays GI50 of 12.6 µM (inactive)

According to the records, this compound COc1cc(Br)c(/C=N\c2cccc3ccc(OS(=O)(=O)c4cccc([N+](=O)[O-])c4)cc23)cc1OC displays GI50 of 23.1 µM (inactive)

According to the records, this compound COC(=O)[C@@]12C3=NO[C@]1(C(=O)OC)C(O[Si](C)(C)C(C)(C)C)[C@@H](OC(C)=O)[C@@H](OC(C)=O)[C@@H]2[C@@H](OCc1ccccc1)CC3 (some centres not stated) displays GI50 of > 43.6 µM (inactive)

According to the records, this compound NNC(=O)CNC(=O)c1ccc(Cl)cc1Cl displays GI50 of > 100 µM (inactive)

According to the records, this compound CN1C[C@@H]2CC(=O)CC[C@@H]2C[C@H]1C#N displays GI50 of > 100 µM (inactive)

According to the records, this compound c1ccc([P+](CCN2Cc3ccccc3C2)(c2ccccc2)c2ccccc2)cc1 displays GI50 of 2.85 µM (inactive)

According to the records, this compound COC1CCC(OC)C(C2(C3CC(OC)CCC3OC)OC(=O)c3ccccc32)C1 (configuration not stated) displays GI50 of 94.8 µM (inactive)

According to the records, this compound Clc1cc(OCC23CC4CC(CC(C4)C2)C3)nc(OCC23CC4CC(CC(C4)C2)C3)n1 displays GI50 of > 100 µM (inactive)

According to the records, this compound COc1cc2cc(C(=O)N3CC(CCl)c4ccc(O)cc43)[nH]c2c(OC)c1OC (configuration not stated) displays GI50 of 0.00136 µM (active)

According to the records, this compound Nc1ncnc(NC2C=C(CO)C(O)C2O)c1[N+](=O)[O-] (configuration not stated) displays GI50 of > 100 µM (inactive)

According to the records, this compound Cc1cc2c(=O)cc(-c3ccc(C(=O)O)cc3)oc2c(C(=O)O)c1C displays GI50 of > 100 µM (inactive)

According to the records, this compound Cn1c(=O)nc2n(-c3ccc(Cl)cc3)c3cc(Cl)ccc3nc-2c1=O displays GI50 of 1.88 µM (inactive)

According to the records, this compound COC(=O)c1ccccc1C1CN=NC12Cc1c(ccc(C)c1C)C2=O (configuration not stated) displays GI50 of > 100 µM (inactive)

According to the records, this compound CN(CCO)Cc1ncccc1O displays GI50 of > 100 µM (inactive)

According to the records, this compound Nc1c(-c2ccc(Cl)c(Cl)c2)c2ccc([N+](=O)[O-])cc2c(=O)n1-c1nc2ccccc2s1 displays GI50 of 0.419 µM (active)

According to the records, this compound Cc1n[nH]c(C(F)(F)F)c1/N=N/N1CCOCC1 displays GI50 of 11 µM (inactive)

According to the records, this compound NC(=O)C(N)=O displays GI50 of > 100 µM (inactive)

According to the records, this compound O=C(OC1CC(n2cc(F)c(=O)[nH]c2=O)OC1CSC(=O)c1ccccc1)c1ccccc1 (configuration not stated) displays GI50 of 36.4 µM (inactive)

According to the records, this compound CC(C)(Oc1ccc(C(=O)c2ccc(Cl)cc2)cc1Cl)C(=O)N1CCN(c2ccccc2)CC1 displays GI50 of > 100 µM (inactive)

According to the records, this compound O=C1/C(=C/c2ccccc2)Oc2cc(O)ccc21 displays GI50 of > 100 µM (inactive)

According to the records, this compound OCC12C3C4C5C3C1C5C42 (configuration not stated) displays GI50 of > 100 µM (inactive)

According to the records, this compound CCN(CC)c1c(C(=O)/C=C/c2ccccc2)c(-c2ccccc2)nn(C)c1=O displays GI50 of 5.41 µM (inactive)

According to the records, this compound O=C1C(Cl)N(c2ccccc2[N+](=O)[O-])C1c1c[nH]c2ccccc12 (configuration not stated) displays GI50 of > 100 µM (inactive)

According to the records, this compound CCOP(=O)(OCC)C(N)Cc1ccc(OC)c(OC)c1 (configuration not stated) displays GI50 of > 100 µM (inactive)
